Values compiled from patent US9517244B2.

System: Mia-PaCa2
Assay: MTT assay, pancreatic cancer cell line
Type: cell-based, human
Details: Mia-PaCa2; NSC-30049 1.0 μM; 1 μM dFdC; 72 h; read-out: IC50 of CDDP
ENDPOINT: pIC50
Lab note — pIC50 values are minus log10 of concentrations in M.

What value of pIC50 has been reported for the following compound? [NH2][Pt]([NH2])([Cl])[Cl] [CDDP, cisplatin]
7.15

====

Test system: BxPC3
Test: MTT assay, pancreatic cancer cell line
Type: cell-based, human
Details: Homo sapiens, BXPC-3; BxPC3 (dFdC-sensitive); single agent; 72 h; read-out: IC50
ENDPOINT: pIC50
Lab note — pIC50 values are minus log10 of concentrations in M.

So what pIC50 did `ClCC=CC[N+]12CN3CN(CN(C3)C1)C2` get with BxPC3?
5.41

So what pIC50 did `Nc1ccn([C@@H]2O[C@H](CO)[C@@H](O)C2(F)F)c(=O)n1` get with BxPC3?
7.15
